System: TGF-β signaling (TGF-β pSMAD, MPC-11)
Test description: AlphaScreen SureFire SMAD3 (p-Ser423/425) assay, inhibition of TGF-β signaling
Assay type: cell-based
Recorded conditions: Mus musculus, p-SMAD-3 (Ser423/425) in cell lysate after TGF-β stimulation
pIC50: −log10 of the molar value.
Measure: pIC50

Example entries and their recorded answers appear below.
Fc1cccc(-c2nn3c(c2-c2ccc4[nH]ncc4c2)CCC3)c1 [Compound 77] | 5.87
Clc1cccc(-c2nn3c(c2-c2ccc4cn[nH]c4c2)CCC3)c1 [Compound 23] | 6.62
Fc1ccc(-c2nn3c(c2-c2ccc4ncnn4c2)CCC3)cc1OC(F)(F)F [Compound 154] | 6.08
Cc1c(F)ccc(-c2nn3c(c2-c2ccc4cn[nH]c4c2)CCC3)c1F [Compound 168] | 6.10
Fc1ccc(-c2nn3c(c2-c2ccc4ncccc4c2)CCC3)c(F)c1 [Compound 95] | 5.43
Clc1ccccc1-c1nn2c(c1-c1ccc3ncsc3c1)CCC2 [Compound 120] | 5.26

A. Cc1c(F)ccc(-c2nn3c(c2-c2ccc4ncnn4c2)CCC3)c1F [Compound 173]
B. Cc1cccc(-c2nn3c(c2-c2ccc4cn[nH]c4c2)OCC3)c1 [Compound 37]
Query string: # query: argmin of pIC50 over A and B Bench note: the answer is the label of the chosen record.
Result string: A

a. COc1cccc(-c2nn3c(c2-c2ccc4cn[nH]c4c2)CCC3)c1 [Compound 28]
b. FC(F)(F)c1cccc(-c2nn3c(c2-c2ccc4nccnc4c2)OCC3)c1 [Compound 64]
c. Fc1ccc(-c2nn3c(c2-c2ccc4ncccc4c2)CCC3)cc1F [Compound 88]
d. FC(F)(F)c1cccc(-c2nn3c(c2-c2ccc4nccn4c2)CCC3)c1 [Compound 34]
Query string: Sort the 4 compounds by pIC50; largest first, smallest last. Order the labels as requested and list them.
Result string: d, a, b, c
(d: 7.46, a: 6.62, b: 5.83, c: 5.02)

A. FC(F)(F)c1cccc(-c2nn3c(c2-c2ccc4ncsc4c2)CCC3)c1 [Compound 35]
B. COc1ccc(F)c(-c2nn3c(c2-c2ccc4nccn4c2)CCC3)c1 [Compound 164]
Query string: # query: argmin of pIC50 over A and B Bench note: the answer is the label of the chosen record.
Result string: B
(B: 5.88, A: 6.46)

I. Fc1cc(F)c(-c2nn3c(c2-c2ccc4[nH]ncc4c2)CCC3)cc1Cl [Compound 186]
II. Fc1cc(F)c(-c2nn3c(c2-c2ccc4ncnn4c2)CCC3)cc1F [Compound 119]
Query string: # query: argmin of pIC50 over I and II Bench note: the answer is the label of the chosen record.
Result string: I

A. Cc1cc(-c2nn3c(c2-c2ccc4cn[nH]c4c2)CCC3)ccc1F [Compound 3]
B. Fc1cc(F)c(-c2nn3c(c2-c2ccc4nccn4c2)CCC3)cc1F [Compound 115]
Query string: Lab note: record which item had the higher pIC50, A or B . Bench note: the answer is the label of the chosen record.
Result string: A
(A: 6.64, B: 6.43)
